The measured values listed here are drawn from ChEMBL document CHEMBL1153900.

# Test system: Staphylococcus aureus
# protocol: Antimicrobial activity against methicillin-resistant Staphylococcus aureus L44 clinical isolate by CLIS method
# Format: functional
Each entry below carries its reported MIC.
Return type: number; implicit unit µM.

CS[C@H]1SC[C@H]2C(=O)N(C)[C@@H](C(C)C)C(=O)OC[C@@H](NC(=O)c3cnc4ccccc4n3)C(=O)N[C@@H](C)C(=O)N(C)[C@@H]1C(=O)N(C)[C@@H](C(C)C)C(=O)OC[C@@H](NC(=O)c1cnc3ccccc3n1)C(=O)N[C@@H](C)C(=O)N2C
0.03

Now, please, on to the next molecule.
IN: Read off the recorded MIC for CS[C@@H]1[C@H]2C(=O)N(C)[C@@H](C(C)C)C(=O)OC[C@@H](NC(=O)c3cnc4ccccc4n3)C(=O)N[C@@H](C)C(=O)N(C)[C@@H](C[S+]1[O-])C(=O)N(C)[C@@H](C(C)C)C(=O)OC[C@@H](NC(=O)c1cnc3ccccc3n1)C(=O)N[C@@H](C)C(=O)N2C (some centres undefined)
OUT: 1.79

###

# Tested on: Staphylococcus aureus
# protocol: Antimicrobial activity against methicillin-resistant Staphylococcus aureus L44 clinical isolate by CLIS method
# Format: functional
quantity kind: MBC

CS[C@H]1SC[C@H](N(C)C(=O)[C@H](C)NC(=O)[C@@H](CO)NC(=O)c2cnc3ccccc3n2)C(=O)N(C)[C@@H](C(C)C)C(=O)OC[C@@H](NC(=O)c2cnc3ccccc3n2)C(=O)N[C@@H](C)C(=O)N(C)[C@@H]1C(=O)N(C)[C@H](C(=O)O)C(C)C [DEPSIECHINOSERINE]
> 14 µM
CS[C@H]1SC[C@H]2C(=O)N(C)[C@@H](C(C)C)C(=O)OC[C@@H](NC(=O)c3cnc4ccccc4n3)C(=O)N[C@@H](C)C(=O)N(C)[C@@H]1C(=O)N(C)[C@@H](C(C)C)C(=O)OC[C@@H](NC(=O)c1cnc3ccccc3n1)C(=O)N[C@@H](C)C(=O)N2C [ECHINOMYCIN]
0.45 µM
CS[C@@H]1[C@H]2C(=O)N(C)[C@@H](C(C)C)C(=O)OC[C@@H](NC(=O)c3cnc4ccccc4n3)C(=O)N[C@@H](C)C(=O)N(C)[C@@H](C[S+]1[O-])C(=O)N(C)[C@@H](C(C)C)C(=O)OC[C@@H](NC(=O)c1cnc3ccccc3n1)C(=O)N[C@@H](C)C(=O)N2C (some centres undefined)
7.17 µM

Okay, next one:
IN: # return recorded MBC for entry CS[C@@H](SC[C@@H](C(=O)N(C)[C@H](C(=O)O)C(C)C)N(C)C(=O)[C@H](C)NC(=O)[C@@H](CO)NC(=O)c1cnc2ccccc2n1)[C@@H](C(=O)N(C)[C@H](C(=O)O)C(C)C)N(C)C(=O)[C@H](C)NC(=O)[C@@H](CO)NC(=O)c1cnc2ccccc2n1 [ECHINOSERINE]
OUT: > 14 µM
